Catalogue of MFI at 6 nM mAb readings, one per entry.
- Tested On: T1, Human CD33 full length, expressed on HEK293F cells (human, UniProt P20138 18-364)
- T1 construct: HEK293F cells transduced with lentivirus containing full length human CD33; also called huCD33
- T1 sequence (P20138 18-364 limits assumed): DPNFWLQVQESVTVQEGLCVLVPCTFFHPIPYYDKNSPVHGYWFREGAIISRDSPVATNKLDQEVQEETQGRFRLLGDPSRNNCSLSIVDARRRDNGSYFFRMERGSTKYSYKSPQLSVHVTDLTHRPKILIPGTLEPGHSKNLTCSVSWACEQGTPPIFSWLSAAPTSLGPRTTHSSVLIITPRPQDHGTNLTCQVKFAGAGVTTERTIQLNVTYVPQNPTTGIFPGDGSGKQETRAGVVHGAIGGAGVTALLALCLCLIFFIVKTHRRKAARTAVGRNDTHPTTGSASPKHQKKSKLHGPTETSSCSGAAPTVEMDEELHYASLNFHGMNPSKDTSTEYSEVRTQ
- Method: flow cytometry, HEK293F cells expressing human CD33
Hi! Could you send only the number? It should be in MFI, unit omitted.

// below: answered binders
>>> reported_measurement("C33B46 (antibody, IgG1, V domains shown, huIgG1 F405L; also called C33F51; C33H108/C33L74) VH: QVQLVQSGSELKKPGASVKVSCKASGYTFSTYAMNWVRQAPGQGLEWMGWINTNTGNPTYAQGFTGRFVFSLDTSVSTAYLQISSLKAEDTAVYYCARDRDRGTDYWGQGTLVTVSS VL: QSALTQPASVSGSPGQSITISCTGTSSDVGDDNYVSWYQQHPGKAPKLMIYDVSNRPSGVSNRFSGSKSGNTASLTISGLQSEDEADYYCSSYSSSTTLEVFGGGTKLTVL")
448000
>>> reported_measurement("C33B55 (antibody, IgG1, V domains shown, huIgG1 F405L; also called C33F60; C33H45/C33L11) VH: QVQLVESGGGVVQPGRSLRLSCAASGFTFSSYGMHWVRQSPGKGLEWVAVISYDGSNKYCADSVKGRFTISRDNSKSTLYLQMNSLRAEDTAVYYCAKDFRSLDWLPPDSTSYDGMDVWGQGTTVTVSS VL: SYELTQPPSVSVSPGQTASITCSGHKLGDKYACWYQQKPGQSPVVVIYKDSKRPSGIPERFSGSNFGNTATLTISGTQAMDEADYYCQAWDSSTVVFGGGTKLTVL")
59200
>>> reported_measurement("C33B125 (antibody, IgG1, V domains shown, huIgG1 F405L; also called C33F130; C33H84/C33L66) VH: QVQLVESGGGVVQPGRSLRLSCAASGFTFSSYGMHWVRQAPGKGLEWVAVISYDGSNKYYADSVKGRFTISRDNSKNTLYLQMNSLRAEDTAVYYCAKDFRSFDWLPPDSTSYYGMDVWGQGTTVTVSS VL: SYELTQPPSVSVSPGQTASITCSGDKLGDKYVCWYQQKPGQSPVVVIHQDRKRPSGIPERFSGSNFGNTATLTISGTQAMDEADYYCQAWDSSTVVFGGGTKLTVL")
79700
>>> reported_measurement("C33B122 (antibody, IgG1, V domains shown, huIgG1 F405L; also called C33F127; C33H92/C33L30) VH: QLQLQESGPGLVKPSETLSLTCTVSGGSIRSSSYYWGWIRQPPGKGPEWIGSIYSSGNTYYNPSLKSRVTISVDTSKNQFSLKLISMTAADTAVFYCARLAATIVVPAARYFDCWGQGTLVTVSS VL: SYELTQPPSVSVSPGQTVSISCSGDRLGDKYACWYQQKPGQSPVLVIYQDSKRPSGIPERFSGSNSGNTATLTISGTQAMDEADYYCQAWDSSSYVFGTGTKVTVL")
84300

Now consider the entry below.
# lookup: MFI at 6 nM mAb of C33B52 (antibody, IgG1, V domains shown, huIgG1 F405L; also called C33F57; C33H42/C33L8) VH: QLQLQESGPGLVNPSETLSHTCTVSGGSISSSSHYWGWIRQPPGKGLEWIGKIYYSGNTYYNPSLKSRVTISIDTSKNQFSLKMSSVTAADTAVYYCARLADVVVVPAARYFDSWGQGTLVTVSS VL: SYELTQPPSVSVSPGQTASIICSGDKLGNKYACWYQQKPGQSPVLVIYQDSKRPSGIPERFSGSNSGNTATLTISGTQAVDEADYYCQAWDSSTYVFGTGTKVTVL
46300
